All figures here come from PubChem BioAssay (Tox21).

experiment: A CellTox Green Cytotoxicity Assay to monitor cytotoxicity in HEK293 cells - 32 hour (AID 1224881); conditions: CellTox Green fluorescence; series mostly up to 76.8 µM; further: nearly all actives have a fitted effect of over 40% in size
Records with an inconclusive call do not appear. Activity calls are given as the source filed them. The call rests on the fitted dose curve; in most records, active means well fitted activation curve with a large enough effect in the repeat runs; inconclusive means weak or mixed curves; inactive means flat fitted curve, though single readings scatter.
Possible outcomes: active, inactive

[
  {
    "molecule": "Oc1ccc2c(c1)CCC2",
    "class": "inactive"
  },
  {
    "molecule": "CSc1ccc(O)cc1C",
    "class": "inactive"
  },
  {
    "molecule": "Nc1ccc(F)c([N+](=O)[O-])c1",
    "class": "inactive"
  },
  {
    "molecule": "COc1ccc(OC)c(N=Nc2c(O)ccc3ccccc23)c1",
    "class": "inactive"
  },
  {
    "molecule": "Clc1ccc2c(Cl)ccnc2c1",
    "class": "inactive"
  },
  {
    "molecule": "C=C1C(CCl)(CCl)C2(Cl)C(Cl)C(Cl)C1(Cl)C2(Cl)Cl (configuration not stated)",
    "class": "active"
  },
  {
    "molecule": "COc1cc(OC)nc(NC(=O)NS(=O)(=O)Nc2ccccc2C(=O)N(C)C)n1",
    "class": "inactive"
  },
  {
    "molecule": "Nc1ccc2c(S(=O)(=O)O)cccc2c1S(=O)(=O)O",
    "class": "inactive"
  },
  {
    "molecule": "CC(C)(C)c1cc(CCC(=O)OCCSCCOC(=O)CCc2cc(C(C)(C)C)c(O)c(C(C)(C)C)c2)cc(C(C)(C)C)c1O",
    "class": "inactive"
  },
  {
    "molecule": "O=C(N[C@H](CO)[C@H](O)c1ccc([N+](=O)[O-])cc1)C(Cl)Cl",
    "class": "inactive"
  },
  {
    "molecule": "O=C1CCC(=O)N1",
    "class": "inactive"
  },
  {
    "molecule": "C=C(C)C1CCC(C)CC1O (configuration not stated)",
    "class": "inactive"
  }
]
